Tested on: Bovine cardiac myofibrils
methodDescription: In vitro model of dose-dependent myofibril ATPase modulation (AC1.4, pyruvate kinase/lactate dehydrogenase-coupled ATPase assay at pCa25)
Format: biochemical
experimentalConditions: concentration at which ATPase activity was 1.4-fold higher than the bottom of the dose curve, mean of a minimum of two independent tests
observable: log10 of AC1.4 (log10 of the value in µM)
All values: log10 AC1.4 [µM].

Example compounds with recorded log10 of AC1.4:
- C[C@@H](NC(=O)[C@H]1COCCN1C(=O)[C@H]1CCCN(S(=O)(=O)N2CC(C#N)C2)C1)c1ccc(C(F)(F)F)cc1 [Example 175]: -0.51
- N#CC1CN(S(=O)(=O)c2cccc(C(=O)N3CCC[C@@H]3C(=O)NCc3cccc(C(F)(F)F)n3)c2)C1 [Example 655]: 0.66
- CS(=O)(=O)c1ccc(C(=O)N2C[C@@H](F)C[C@@H]2C(=O)N[C@@H](c2cc(F)c(Cl)cc2F)C2CC2)cn1 [Example 262]: -0.19
- N#CC1CN(S(=O)(=O)N2CCC[C@H](C(=O)N3[C@@H](C(=O)NCc4ccc(C(F)(F)F)cc4F)C[C@H]4C[C@H]43)C2)C1 [Example 33]: -1.46
- COC1CN(S(=O)(=O)N2CCC[C@H](C(=O)N3CCC[C@@H]3C(=O)NCc3ccc(C(F)(F)F)cc3)C2)C1 [Example 492]: 0.35

What measured log10 of AC1.4 goes with CCS(=O)(=O)c1cccc(C(=O)N2[C@@H](C(=O)N[C@@H](c3cc(F)c(Cl)cc3F)C3COC3)C[C@H]3C[C@H]32)c1 [Example 66] ?
-1.12

Now try N#CC1CN(S(=O)(=O)N2CCC[C@H](C(=O)N3CCC[C@@H]3C(=O)NCc3ccc(F)c(Cl)c3)C2)C1 [Example 272] .
-0.16

Likewise for CC(C)(C#N)c1cccc(C(=O)N2[C@@H](C(=O)N[C@@H](c3ccc(C(F)(F)F)cc3F)C3COC3)C[C@H]3C[C@H]32)c1 [Example 412] ?
0.17

Proceed to Cc1cc(C(=O)N2[C@@H](C(=O)N[C@@H](c3ccc(C(F)(F)F)cc3F)C3COC3)C[C@H]3C[C@H]32)cc(S(C)(=O)=O)c1 [Example 323]
-0.06

Follow-up item: CCNc1ccc(S(C)(=O)=O)cc1C(=O)N1[C@@H](C(=O)N[C@@H](c2ccc(C(F)(F)F)cc2F)C2CC2)C[C@H]2C[C@H]21 [Example 50]
-1.26

Next compound up: C[C@@H](NC(=O)[C@H]1CCCN1C(=O)c1cccc(S(=O)(=O)N2CC(C#N)C2)c1)c1ccccc1 [Example 785]
0.95

// query: C[C@@H](NC(=O)[C@H]1CCCN1C(=O)c1cccc(S(=O)(=O)N2CC3(CC3)C2)c1)c1ccc(Cl)c(Cl)c1 [Example 635]
0.62

Another: O=C(N[C@@H](c1ccc(C(F)(F)F)cc1F)C1CC1)[C@H]1CCCN1C(=O)c1cccc(C2CC2)c1 [Example 369]
0.07

====

System: Bovine cardiac myofibrils
methodDescription: In vitro model of dose-dependent myofibril ATPase modulation (AC1.4, pyruvate kinase/lactate dehydrogenase-coupled ATPase assay at pCa25)
Assay type: biochemical
experimentalConditions: concentration at which ATPase activity was 1.4-fold higher than the bottom of the dose curve, mean of a minimum of two independent tests
Experimental: In vitro Model of Dose-Dependent Myofibril ATPase Modulation: Dose responses were measured using a calcium-buffered, pyruvate kinase and lactate dehydrogenase-coupled ATPase assay containing the following reagents (concentrations expressed are final assay concentrations): Potassium PIPES (12 mM), MgCl2 (2 mM), ATP (1 mM), DTT (1 mM), BSA (0.1 mg/mi), NADH (0.5 mM), PEP (1.5 mM), pyruvate kinase (4 U/ml), lactate dehydrogenase (8 U/ml), and antifoam (90 ppm). […]
Collected log10(AC1.4) values appear next to each entry.
// units: µM (pre-log); metric: AC1.4; scale: log10

* CS(=O)(=O)c1cccc(C(=O)N2C[C@@H]3C[C@@H]3[C@@H]2C(=O)N[C@@H](c2ccc(C(F)(F)F)cc2F)C2CC2)c1 | 0.30
* CS(=O)(=O)c1ccc(NCCO)c(C(=O)N2[C@@H](C(=O)N[C@@H](c3ccc(C(F)(F)F)cc3F)C3CC3)C[C@H]3C[C@H]32)c1 | -0.75
* N#CC1CC(S(=O)(=O)c2cccc(C(=O)N3CCCC[C@@H]3C(=O)NCc3ccc(C(F)(F)F)nc3)c2)C1 (stereo partly drawn) | 0.28
* O=C(N[C@@H](c1cc(F)c(Cl)cc1F)C1CC1)[C@H]1C[C@H]2C[C@H]2N1C(=O)c1cc(C2CC2)ccn1 | 0.78
* CC(C)N(C)S(=O)(=O)c1cccc(C(=O)N2CCC[C@@H]2C(=O)NCc2ccc(C(F)(F)F)cc2)c1 | -0.07

Next, consider the following compound.
Which log10(AC1.4) value belongs to `N#CC1CN(S(=O)(=O)N2CCC[C@H](C(=O)N3CCC[C@@H]3C(=O)NCc3c(F)c(F)cc(F)c3F)C2)C1` ?
0.60

====

Tested on: Bovine cardiac myofibrils
methodDescription: In vitro model of dose-dependent myofibril ATPase modulation (AC1.4, pyruvate kinase/lactate dehydrogenase-coupled ATPase assay at pCa25)
Type: biochemical
experimentalConditions: concentration at which ATPase activity was 1.4-fold higher than the bottom of the dose curve, mean of a minimum of two independent tests
t means recorded AC1.4 is 0.5 µM or above; f means it is below 0.5 µM.

- N#CC1CN(S(=O)(=O)N2CCC[C@H](C(=O)N3[C@@H](C(=O)NCc4ccc(C(F)(F)F)cn4)C[C@H]4C[C@H]43)C2)C1 [Example 348]: t
- CCC1(O)CN(S(=O)(=O)N2CCC[C@H](C(=O)N3CCC[C@@H]3C(=O)NCc3ccc(C(F)(F)F)cc3F)C2)C1 [Example 509]: t
- C[C@H](C(=O)N[C@H](C)c1ccc(C(F)(F)F)cc1)N(C)C(=O)[C@H]1CCCN(S(=O)(=O)N2CC(C#N)C2)C1 [Example 415]: t
- N#CC1CN(S(=O)(=O)N2CCC[C@H](C(=O)N3CCC[C@@H]3C(=O)N[C@@H](c3ccc(S(F)(F)(F)(F)F)cc3)C3CC3)C2)C1 [Example 117]: f

hey, is AC1.4 for this one >= 0.5 µM? N#CC1CN(S(=O)(=O)n2cc(C(=O)N3CCC[C@@H]3C(=O)NCc3ccc(C(F)(F)F)cc3)cn2)C1 [Example 123]
f

====

Test system: Bovine cardiac myofibrils
methodDescription: In vitro model of dose-dependent myofibril ATPase modulation (AC1.4, pyruvate kinase/lactate dehydrogenase-coupled ATPase assay at pCa25)
Assay type: biochemical
experimentalConditions: concentration at which ATPase activity was 1.4-fold higher than the bottom of the dose curve, mean of a minimum of two independent tests
Recorded measurements of AC1.4, one per entry
Your answer should be a plain number; it is taken to be in µM.

State the recorded AC1.4 for this entry: `Cc1cc(C(=O)N2[C@@H](C(=O)N[C@@H](c3cc(F)c(Cl)cc3F)C3COC3)C[C@H]3C[C@H]32)cc(C)n1`
3.6775

Further, for `CS(=O)(=O)c1cccc(C(=O)N2[C@@H](C(=O)N[C@@H](c3ccc(C(F)(F)F)cc3F)C3(O)CC3)C[C@H]3C[C@H]32)c1` ?
2.7115

====

Test system: Bovine cardiac myofibrils
methodDescription: In vitro model of dose-dependent myofibril ATPase modulation (AC1.4, pyruvate kinase/lactate dehydrogenase-coupled ATPase assay at pCa25)
Type: biochemical
experimentalConditions: concentration at which ATPase activity was 1.4-fold higher than the bottom of the dose curve, mean of a minimum of two independent tests
Measured AC1.4 accompanies every entry in the list below.
# output: bare number, implied unit µM

What does the record list as AC1.4 for O=C(N[C@@H](c1cc(F)c(Cl)cc1F)C1CC1)[C@H]1C[C@H]2C[C@H]2N1C(=O)c1cc(C(F)(F)F)ccn1 [Example 266] ?
0.6674

Queued: Cc1ccccc1CNC(=O)[C@H]1CCCN1C(=O)[C@H]1CCCN(S(=O)(=O)N2CC(C#N)C2)C1 [Example 571]
3.1845

// query: CCS(=O)(=O)c1cccc(C(=O)N2[C@@H](C(=O)N[C@@H](c3ccc(Cl)cc3)C3COC3)C[C@H]3C[C@H]32)c1 [Example 403]
1.4025

Note, next up: O=C(NCc1ccc(C(F)(F)F)cc1)[C@H]1CCCN1C(=O)c1cccc(S(=O)(=O)N2CC3(COC3)C2)c1 [Example 329]
0.8921

What about N#CC1CN(S(=O)(=O)N2C[C@H]3C[C@@H]2[C@H](C(=O)N2CCC[C@@H]2C(=O)NCc2ccc(C(F)(F)F)cc2)C3)C1 [Example 172] ?
0.2959

// same read-out, input: N#CC1CN(S(=O)(=O)N2CCC[C@H](C(=O)N3CCC[C@@H]3C(=O)NCc3ccc(C(F)(F)F)cc3)C2)C1 [Example 67]
0.07786

// next record N#CC1CN(S(=O)(=O)c2cccc(C(=O)N3CCC[C@@H]3C(=O)N[C@H](CC3CC3)c3ccc(C(F)(F)F)cc3)c2)C1 [Example 1]
0.01405

Entry CS(=O)(=O)c1ccc(NC2CCC2)c(C(=O)N2[C@@H](C(=O)N[C@@H](c3ccc(C(F)(F)F)cc3F)C3CC3)C[C@H]3C[C@H]32)c1 [Example 40] please
0.0398

How about O=C(N[C@@H](c1ccc(C(F)(F)F)cc1F)C1CC1)[C@H]1CCCN1C(=O)c1cccc(-c2cc[nH]n2)c1 [Example 745] ?
7.244

Repeat for the following compound: CN1CC(C(NC(=O)[C@H]2C[C@H]3C[C@H]3N2C(=O)c2cccc(S(C)(=O)=O)c2)c2ccc(C(F)(F)F)cc2F)CC1=O (stereo partly shown) [Example 519]
2.367

Also need CS(=O)(=O)c1cc(C(=O)N2[C@@H](C(=O)N[C@@H](c3cc(F)c(C(F)(F)F)cc3F)C3CC3)C[C@H]3C[C@H]32)ccn1 [Example 279] , thanks.
0.7092

Can you check O=C(c1ccccc1)c1cccc(C(=O)N2[C@@H](C(=O)N[C@@H](c3cc(F)c(Cl)cc3F)C3CC3)C[C@H]3C[C@H]32)c1 [Example 608] next?
3.7405

Next up: CN(C)S(=O)(=O)c1cccc(C(=O)N2CCC[C@@H]2C(=O)N[C@@H](c2ccc(Cl)c(F)c2)C2CC2)c1 [Example 114]
0.1771
